These measurements were taken from patent US20220380463A1.

target: T1, human CD3 on CD3+ Jurkat cells (human, UniProt P07766 23-207); test: flow cytometry on CD3+ Jurkat cells, ratio of MFI at pH 6.0 to pH 7.4
T1 construct: whole, on cells; Native CD3 complex on cells; the other CD3 chains are not specified for this assay; also called Human CD3+ Jurkat
T1 sequence (P07766 23-207): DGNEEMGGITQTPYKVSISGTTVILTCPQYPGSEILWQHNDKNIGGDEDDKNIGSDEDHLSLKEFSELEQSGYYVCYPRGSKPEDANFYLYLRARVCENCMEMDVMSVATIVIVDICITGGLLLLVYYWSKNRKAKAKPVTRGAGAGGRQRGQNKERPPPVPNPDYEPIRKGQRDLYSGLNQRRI
Recorded measurements of MFI pH 6.0/MFI pH 7.4, one per entry
Answer field: number only, no words.

Example entries begin here.
1) SAD10319_P03_A08 (ADI-48636) (antibody, V domains shown, IgG; also called Ab230) VH: QVQLVQSGAEVKKPGASVKVSCKASGYTFTDYDMHWVRQAPGQRLEWMGWIDAGTGLTKYSQKFQGRVTITRDTSASTAYMELSSLRSEDTAVYYCARDHYGHYFYDVWGQGTLVTVSS VL: DIVMTQSPDSLAVSLGERATINCKSSQSLLNARTGKNYLAWYQQKPGQPPKLLIYWASTRESGVPDRFSGSGSGTDFTLTISSLQAEDVAVYYCKQSYSRRTFGGGTKVEIK: 25.9
2) SAD10318_P01_F02 (ADI-48585) (antibody, V domains shown, IgG; also called Ab14) VH: QVQLVQSGAEVKKPGASVKVSCKASGFNIKDYYMHWVRQAPGQRLEWMGWIDLENANTIYDAKFQGRVTITRDTSASTAYMELSSLRSEDTAVYYCARDAHGHYFYDVWGQGTLVTVSS VL: DIVMTQSPDSLAVSLGERATINCKSSQSLLNAHTGKNHLAWYQQKPGQPPKLLIYWASTRESGVPDRFSGSGSGTDFTLTISSLQAEDVAVYYCKQSHSHRTFGGGTKVEIK: 8.5
3) SAD10319_P03_G08 (ADI-48638) (antibody, V domains shown, IgG; also called Ab22) VH: QVQLVQSGAEVKKPGASVKVSCKASGYTFSSYDMHWVRQAPGQRLEWMGWIDAGTGFTKYSQKFQGRVTITRDTSASTAYMELSSLRSEDTAVYYCARDAYGHYFYDHWGQGTLVTVSS VL: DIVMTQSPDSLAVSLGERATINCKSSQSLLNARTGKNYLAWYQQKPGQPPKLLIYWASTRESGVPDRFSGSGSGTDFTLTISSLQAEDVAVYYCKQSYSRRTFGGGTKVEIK: 23.8

Turning to the following binder.
MFI pH 6.0/MFI pH 7.4 measured on SAD10319_P02_H06 (ADI-48633) (antibody, V domains shown, IgG; also called Ab16) VH: QVQLVQSGAEVKKPGASVKVSCKASGYTFTAYVMHWVRQAPGQRLEWMGSIDAGTGNTKYSQKFQGRVTITRDTSASTAYMELSSLRSEDTAVYYCARDAYGHYFYDHWGQGTLVTVSS VL: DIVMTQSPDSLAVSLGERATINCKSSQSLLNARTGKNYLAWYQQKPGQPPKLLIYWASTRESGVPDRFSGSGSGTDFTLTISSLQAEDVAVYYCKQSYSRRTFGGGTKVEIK = 1.9
